The origin of these recorded values is patent US20240391889A1.

- experiment.summary: in vitro
- Assay type: cell-based, human
- condition.details: human, HaCat human keratinocyte cells
Numbered stars: 1 amine (or outer) side, 2 acyl side, 3 side chain; on linkers, the order of the positions; unused ones are H or OH. Square brackets hold non-standard residues; d marks the D form. Peptide text beside a SMILES is read from it. N(tridecyl)Gly = CCCCCCCCCCCCCNCC(=O)O; X1 = CC(c1ccccc1)N(CC(=O)[*:2])[*:1]; NFurfurylGly = O=C(O)CNCc1ccco1; Gly(N(CH2)3NH2) = NCCCNCC(=O)O; Nphe = O=C(O)CNCc1ccccc1; NPrGly = CCCNCC(=O)O; Nlys = NCCCCNCC(=O)O
metric.name: CC50 at 72 h (µg/mL)
Your answer should be a plain number; it is taken to be in µg/mL.

# CC50 at 72 h lookup, item CCCCCCCCCCCCCNCC(=O)N(CCC)CC(=O)N(CC(=O)N(CCCCN)CC(=O)N(CC(=O)N(CC(=O)N(CCCN)CC(N)=O)Cc1ccccc1)Cc1ccco1)C(C)c1ccccc1 (stereo not shown) [RMG9-11] (H-[N(tridecyl)Gly][NPrGly][X1][Nlys][NFurfurylGly][Nphe][Gly(N(CH2)3NH2)]-NH2)
53

---

- experiment.summary: in vitro
- Assay type: cell-based
- condition.details: human, HepG2 hepatocellular carcinoma cells
Numbered stars: 1 amine (or outer) side, 2 acyl side, 3 side chain; on linkers, the order of the positions; unused ones are H or OH. Square brackets hold non-standard residues; d marks the D form. Peptide text beside a SMILES is read from it. * marks the point of attachment. N(3-imidazol-1-ylpropyl)Gly = O=C(O)CNCCCn1ccnc1; N(2-thienylmethyl)Gly = O=C(O)CNCc1cccs1; NCyclohexylmethylGly = O=C(O)CNCC1CCCCC1; N(tridecyl)Gly = CCCCCCCCCCCCCNCC(=O)O; X2 = O=C(CN(c1cccc2ccccc12)[*:1])[*:2]; X1 = CC(c1ccccc1)N(CC(=O)[*:2])[*:1]; Gly(N-2-aminoethyl) = NCCNCC(=O)O; Myristoyl = CCCCCCCCCCCCCC(=O)*; NFurfurylGly = O=C(O)CNCc1ccco1; Gly(N(CH2)3NH2) = NCCCNCC(=O)O; Nphe = O=C(O)CNCc1ccccc1; NPrGly = CCCNCC(=O)O; Nlys = NCCCCNCC(=O)O
Could you please mark 1 for values of CC50 at 72 h below 100 µg/mL and 0 for values at or above it?

Reference set, count: 5
compound	assigned.class
CCCCCCCCCCCCCNCC(=O)N(CCN)CC(=O)N(CC(=O)N(CCCCN)CC(=O)N(CC(=O)N(CC(=O)N(CCCN)CC(N)=O)Cc1ccccc1)Cc1ccco1)C(C)c1ccccc1 (stereo not drawn) [Compound 911-M2] (H-[N(tridecyl)Gly][Gly(N-2-aminoethyl)][X1][Nlys][NFurfurylGly][Nphe][Gly(N(CH2)3NH2)]-NH2)	0
CCCCCCCCCCCCCC(=O)NCC(=O)N(CCC)CC(=O)N(CC(=O)N(CCCCN)CC(=O)N(CC(=O)N(CCCn1ccnc1)CC(=O)N(CCCN)CC(N)=O)Cc1ccco1)C(C)c1ccccc1 (stereo not drawn) [Compound 911-M14] (Myristoyl-G[NPrGly][X1][Nlys][NFurfurylGly][N(3-imidazol-1-ylpropyl)Gly][Gly(N(CH2)3NH2)]-NH2)	0
CCCCCCCCCCCCCC(=O)NCC(=O)N(CCC)CC(=O)N(CC(=O)N(CCCCN)CC(=O)N(CC(=O)N(CC(=O)N(CCCN)CC(N)=O)CC1CCCCC1)Cc1ccco1)C(C)c1ccccc1 (stereo not drawn) [Compound 911-M20] (Myristoyl-G[NPrGly][X1][Nlys][NFurfurylGly][NCyclohexylmethylGly][Gly(N(CH2)3NH2)]-NH2)	1
CCCCCCCCCCCCCC(=O)NCC(=O)N(CCC)CC(=O)N(CC(=O)N(CCCCN)CC(=O)N(CC(=O)N(CC(=O)N(CCCN)CC(N)=O)Cc1cccs1)Cc1ccco1)C(C)c1ccccc1 (stereo not drawn) [Compound 911-M21] (Myristoyl-G[NPrGly][X1][Nlys][NFurfurylGly][N(2-thienylmethyl)Gly][Gly(N(CH2)3NH2)]-NH2)	0
CCCCCCCCCCCCCC(=O)NCC(=O)N(CCC)CC(=O)N(CC(=O)N(CCCCN)CC(=O)N(CC(=O)N(CC(=O)N(CCCN)CC(N)=O)c1cccc2ccccc12)Cc1ccco1)C(C)c1ccccc1 (stereo not drawn) [Compound 911-M15] (Myristoyl-G[NPrGly][X1][Nlys][NFurfurylGly][X2][Gly(N(CH2)3NH2)]-NH2)	0

Would you kindly verify if CC50 at 72 h of CCCCCCCCCCCCCNCC(=O)N(CCC)CC(=O)N(CC(=O)N(CCCCN)CC(=O)N(CC(=O)N(CC(=O)N(CCCN)CC(N)=O)Cc1ccccc1)Cc1ccco1)Cc1cccs1 [Compound 911-M8] (H-[N(tridecyl)Gly][NPrGly][N(2-thienylmethyl)Gly][Nlys][NFurfurylGly][Nphe][Gly(N(CH2)3NH2)]-NH2) is strictly less than 100 µg/mL?
0
